- assay-protocol: ATG_M_19_CIS: Attagene CIS-FACTORIAL HepG2 Assay for M19 Transcription Factor (Internal Marker) (AID 2282939)
- experimental-setup: HepG2 Attagene CIS-FACTORIAL M19 internal marker reporter; actives raise or lower the signal
Active and inactive are the calls of the source. How the source made its calls: active means hit-call score of the fitted dose curve at least 0.9, where 1 is the maximum; inactive means score below 0.9.
Classes used: yes (1) (active), no (0) (inactive)

{"compound": "Cc1cnccn1", "class-label": "no (0)"}
{"compound": "FC(F)(F)C(F)(F)C(F)(F)C(F)(F)C(F)(F)C(F)(F)C(F)(F)CCI", "class-label": "no (0)"}
{"compound": "C=C(C)CCCC", "class-label": "no (0)"}
{"compound": "CC(C)(C)c1cc(Cc2cc(C(C)(C)C)c(O)c(C(C)(C)C)c2)cc(C(C)(C)C)c1O", "class-label": "no (0)"}
{"compound": "CC1CCCCC1", "class-label": "no (0)"}
{"compound": "O=C(c1ccccc1)c1ccc(Cl)cc1", "class-label": "no (0)"}
{"compound": "NS(=O)(=O)C(F)(F)C(F)(F)C(F)(F)C(F)(F)C(F)(F)C(F)(F)F", "class-label": "no (0)"}
{"compound": "CC(C)(C)C(=O)C1C(=O)c2ccccc2C1=O", "class-label": "no (0)"}
{"compound": "OCC1CCCO1 (stereo unspecified)", "class-label": "no (0)"}
{"compound": "OCC(O)CC(F)(F)C(F)(F)C(F)(F)C(F)(F)F (stereo unspecified)", "class-label": "no (0)"}
{"compound": "CC(=O)C=O", "class-label": "no (0)"}
{"compound": "C[Si](C)O[Si](C)C", "class-label": "no (0)"}
{"compound": "Cc1ccc([N+](=O)[O-])c(C)c1", "class-label": "no (0)"}
{"compound": "CCCCCCCC/C=C\\CCCCCCCC(=O)N(C)CC(=O)O", "class-label": "no (0)"}
{"compound": "O=S(=O)(Cl)C(F)(F)C(F)(F)C(F)(F)C(F)(F)C(F)(F)C(F)(F)C(F)(F)C(F)(F)F", "class-label": "no (0)"}
{"compound": "CCOC(=O)CCC(C)=O", "class-label": "no (0)"}
{"compound": "O=C1C=CC(=O)N1c1ccccc1", "class-label": "no (0)"}
{"compound": "CCC(=O)OC(C)c1ccccc1 (stereo unspecified)", "class-label": "no (0)"}
{"compound": "CCc1ccc(C)nc1", "class-label": "no (0)"}
{"compound": "CC(C)C(=O)OCc1ccccc1", "class-label": "no (0)"}
{"compound": "O=C(O)C(F)(F)C(F)(F)C(F)(F)OC(F)(F)F", "class-label": "no (0)"}
{"compound": "NC(=O)C(F)(F)C(F)(F)C(F)(F)F", "class-label": "no (0)"}
{"compound": "COCCC(=O)OC", "class-label": "no (0)"}
{"compound": "CCOC(=O)C1CC(=O)C(=C(O)C2CC2)C(=O)C1 (stereo unspecified)", "class-label": "no (0)"}
{"compound": "CC1=CCC(=O)O1", "class-label": "no (0)"}
{"compound": "O=C=NCc1cccc(CN=C=O)c1", "class-label": "no (0)"}
{"compound": "Cc1ccc(O)c(-n2nc3ccccc3n2)c1", "class-label": "no (0)"}
{"compound": "CC(C)CC=C(C=O)c1ccccc1", "class-label": "no (0)"}
{"compound": "Oc1ccc2c(c1)CCC2", "class-label": "no (0)"}
{"compound": "CC(=O)CCC(C)C", "class-label": "no (0)"}
{"compound": "Nc1cccnc1N", "class-label": "no (0)"}
{"compound": "O=C(O)CCC(F)(F)C(F)(F)C(F)(F)F", "class-label": "no (0)"}
{"compound": "CO[Si](CCCOCC1CO1)(OC)OC (stereo unspecified)", "class-label": "no (0)"}
{"compound": "O=C(O)C(F)(F)C(F)(F)C(F)(F)C(F)(F)C(F)(F)C(F)(F)C(F)F", "class-label": "no (0)"}
{"compound": "NCC(F)(F)C(F)(F)C(F)(F)C(F)(F)C(F)(F)C(F)(F)F", "class-label": "no (0)"}
{"compound": "CCN(CC)c1ccc(C=O)cc1", "class-label": "yes (1)"}
{"compound": "CCN(CC)c1ccc(C=O)c(O)c1", "class-label": "no (0)"}
{"compound": "OCC(F)(F)C(F)(F)C(F)(F)C(F)(F)C(F)(F)C(F)(F)C(F)(F)C(F)(F)CO", "class-label": "no (0)"}
{"compound": "Cc1cc(O)c(C(C)(C)C)cc1C(C)(C)C", "class-label": "no (0)"}
{"compound": "O=C=Nc1cccc2c(N=C=O)cccc12", "class-label": "no (0)"}
{"compound": "N#CCCOCCC#N", "class-label": "no (0)"}
{"compound": "O=C1OC(=O)c2ccc3c4c(ccc1c24)C(=O)OC3=O", "class-label": "no (0)"}
{"compound": "NC(=O)C(F)(F)C(F)(F)C(F)(F)C(F)(F)C(F)(F)C(F)(F)C(F)(F)F", "class-label": "no (0)"}
{"compound": "CCOC(C=C(C)CCC=C(C)C)OCC", "class-label": "no (0)"}
{"compound": "O=C(Cl)c1ccc(Cl)cc1Cl", "class-label": "no (0)"}
{"compound": "O=C1C=CC(=O)N1c1ccc(Cc2ccc(N3C(=O)C=CC3=O)cc2)cc1", "class-label": "no (0)"}

====

- Read-out: Urokinase-type plasminogen activator receptor (uPAR), PLAUR (gene 5329)
- assay-protocol: BSK_4H_uPAR: BioMAP Diversity Plus: 4H Assay for Urokinase-type plasminogen activator receptor (uPAR) Biomarker Activity (AID 2283030)
- experimental-setup: primary human endothelial cells (HUVEC); actives raise or lower the signal
Active and inactive are the calls of the source. The calls were made as follows: active = hit-call score of the fitted dose curve at least 0.9, where 1 is the maximum; inactive = score below 0.9.
Classes used: active, inactive

{"molecule": "NS(=O)(=O)C(F)(F)C(F)(F)C(F)(F)C(F)(F)C(F)(F)C(F)(F)F", "class-label": "inactive"}
{"molecule": "NC(=O)C(F)(F)C(F)(F)C(F)(F)C(F)F", "class-label": "inactive"}
{"molecule": "Brc1nc2ccccc2s1", "class-label": "inactive"}
{"molecule": "NC(=O)C(F)(F)C(F)(F)C(F)(F)C(F)(F)C(F)(F)C(F)(F)C(F)(F)F", "class-label": "inactive"}
{"molecule": "CCN(CC)c1ccc(C=O)cc1", "class-label": "inactive"}
{"molecule": "COC(F)(C(F)F)C(F)(F)F (configuration not stated)", "class-label": "inactive"}
{"molecule": "C=CC(=O)OCCC(F)(F)C(F)(F)C(F)(F)C(F)(F)F", "class-label": "inactive"}
{"molecule": "CCN(CC)c1ccc(N=Nc2ccccc2)cc1", "class-label": "inactive"}
{"molecule": "O=C1c2c(O)ccc(Nc3ccc(CCO)cc3)c2C(=O)c2c([N+](=O)[O-])ccc(O)c21", "class-label": "active"}
{"molecule": "NC(=O)C(F)(F)C(F)(F)C(F)(F)C(F)(F)C(N)=O", "class-label": "inactive"}
{"molecule": "O=C(O)CCC(F)(F)C(F)(F)C(F)(F)F", "class-label": "inactive"}
{"molecule": "O=C(Cl)C(F)(F)C(F)(F)C(F)(F)C(F)(F)C(F)(F)C(F)(F)F", "class-label": "inactive"}

====

- target-under-test: Cellular tumor antigen p53 (Homo sapiens)
- assay-protocol: TOX21_p53_BLA_p4_ratio: Tox21 HCT-116 p53 Agonism Beta-lactamase Assay, Ratio, Phase 4 (AID 2283601)
Inconclusive results are not listed. Calls of active or inactive are those of the source. The calls were made as follows: active = hit-call score of the fitted dose curve at least 0.9, where 1 is the maximum; inconclusive = response in the unintended direction; inactive = score below 0.9.
Outcomes: class 1 for active, class 0 for inactive

{"molecule": "CC(C)CCCC(C)CCO (centres undefined)", "class-label": "class 0"}
{"molecule": "F[Si-2](F)(F)(F)(F)F", "class-label": "class 0"}
{"molecule": "CCN=C1C=CC(=C(c2ccc(N(CC)CC)cc2)c2ccc(N(CC)CC)cc2)c2ccccc21", "class-label": "class 1"}
{"molecule": "CCOC(=O)C1CC(=O)C(=C(O)C2CC2)C(=O)C1 (centres undefined)", "class-label": "class 0"}
{"molecule": "CCC/C=C/CO", "class-label": "class 0"}
{"molecule": "CCOC(=O)CCC(C)=O", "class-label": "class 0"}
{"molecule": "CC(C)(C)C(=O)C1C(=O)c2ccccc2C1=O", "class-label": "class 0"}
{"molecule": "C=CCOC(=O)CC(C)C", "class-label": "class 0"}
{"molecule": "COC(=O)c1ccc(C=O)cc1", "class-label": "class 0"}

====

- target-under-test: Hypoxia-inducible factor 1-alpha (Homo sapiens)
- assay-protocol: ATG_HIF1a_CIS: Attagene CIS-FACTORIAL HepG2 Assay for human Hypoxia Inducible Factor 1 (HIF1A) (AID 2282951)
- experimental-setup: HepG2 Attagene cis-factorial HIF1a reporter transcription; actives raise or lower the signal
Calls of active or inactive are those of the source. The calls were made as follows: active = hit-call score of the fitted dose curve at least 0.9, where 1 is the maximum; inactive = score below 0.9.

{"molecule": "Cc1ccc(O)cn1", "outcome": "inactive"}
{"molecule": "CCOC(C=C(C)CCC=C(C)C)OCC", "outcome": "inactive"}
{"molecule": "OCCCC(F)(F)C(F)(F)C(F)(F)C(F)(F)C(F)(F)C(F)(F)C(F)(F)C(F)(F)F", "outcome": "inactive"}
{"molecule": "CCN(CCO)S(=O)(=O)C(F)(F)C(F)(F)C(F)(F)C(F)(F)C(F)(F)C(F)(F)C(F)(F)C(F)(F)F", "outcome": "inactive"}
{"molecule": "CC(C)CC=C(C=O)c1ccccc1", "outcome": "inactive"}
{"molecule": "OCC1CCCO1 (stereo unspecified)", "outcome": "inactive"}
